The reported measurements were obtained from patent US20240092919A1.

Target: T1, Cynomolgus TCR(AEA41865/AEA41866)-zipper protein (cynomolgus monkey)
T1 construct: also called cyTCR-zipper protein; cynoTCR zipper
T1 TCR alpha: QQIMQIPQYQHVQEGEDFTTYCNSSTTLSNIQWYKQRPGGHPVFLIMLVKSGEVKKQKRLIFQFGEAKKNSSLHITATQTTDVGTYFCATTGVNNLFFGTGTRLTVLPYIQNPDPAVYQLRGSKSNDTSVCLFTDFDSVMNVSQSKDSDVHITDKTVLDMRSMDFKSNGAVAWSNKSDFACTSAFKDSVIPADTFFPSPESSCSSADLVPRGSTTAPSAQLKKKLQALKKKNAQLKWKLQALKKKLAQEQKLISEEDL
T1 TCR beta: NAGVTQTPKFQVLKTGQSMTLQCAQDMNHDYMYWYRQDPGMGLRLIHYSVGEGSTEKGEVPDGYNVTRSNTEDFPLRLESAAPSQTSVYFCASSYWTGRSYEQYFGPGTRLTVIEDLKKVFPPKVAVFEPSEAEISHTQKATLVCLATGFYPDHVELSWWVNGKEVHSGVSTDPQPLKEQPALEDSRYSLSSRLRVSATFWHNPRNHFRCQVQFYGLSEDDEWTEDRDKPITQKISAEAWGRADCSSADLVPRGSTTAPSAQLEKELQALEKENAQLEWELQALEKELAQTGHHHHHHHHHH
Assay: SPR ProteOn off-rate screen
OBSERVATION_TYPE: koff (s⁻¹)

>>> recorded_value("T017000190 (VHH) VHH: EVQLVESGGGVVQPGGSLRLSCVASGDVHKINFLSWYRQAPGKEREKVAHISIGDQTDYADSAKGRFTISRDESKNMVYLQMNSLRPEDTALYFCRAFSRIYPYDYWGQGTLVTVSS")
0.0107

(A) T017000188 (VHH) VHH: EVQLVESGGGVVQPGGSLRLSCVASGAVHKINFLGWYRQAPGKEREKVAHISIGDQTDYADSAKGRFTISRDESKNMVYLQMNSLRPEDTALYFCRAFSRIYPYDYWGQGTLVTVSS
(B) T017000170 (VHH) VHH: EVQLVESGGGVVQPGGSLRLSCVASGDVHKINYLGWYRQAPGKEREKVAHISIGDQTDYADSAKGRFTISRDESKNMVYLQMNSLRPEDTALYFCRAFSRIYPYDYWGQGTLVTVSS
Please state the entry with greater koff among A and B . Identify your pick by its label.
B
(B: 0.00806 s⁻¹, A: 0.00389 s⁻¹)
